molecular target: DNA-PK (Homo sapiens (Human)); assay: DNA-PK assay (biochemical), flashplate 33P-ATP kinase assay; details: biochemical DNA-PK assay
As shown below, each of these molecules has a reported IC50 value.

Please review the entries below; each comes with its answer.
Cc1cncnc1C(O)c1cc(-c2ncnc3cc(N4CCOCC4)ccc23)ccc1F (stereo not shown) [Example 392] : 3 to 7 nM
COc1nccnc1C(O)c1cc(-c2ncnc3cc(N4CCOCC4)ccc23)ccc1Cl (stereo not shown) [Example 422] : 3 to 7 nM
Cc1cncc(C(O)c2ccc(F)c(-c3ncnc4cc(N5CCOCC5)ccc34)c2)n1 (stereo not shown) [Example 296] : 7 to 30 nM

Quick check: IC50 of COc1nccnc1C(C(N)=O)c1ccc(F)c(-c2ncnc3cc(N4CCOCC4)ccc23)c1 (stereo not shown) [Example 305] ? 7 to 30 nM

====

The following compounds are listed with their measured IC50 values.
molecular target: DNA-PK phosphorylation at serine 2056 (Homo sapiens (Human), UniProt P78527); assay: DNA-PK phosphorylation at serine 2056 (cellular), bleomycin-treated HCT116 cells, ELISA; type: cell-based; conditions: cellular DNA-PK phosphorylation at serine 2056, HCT116; read-out: IC50 pDNA-PK

I am curious: what IC50 value has been reported for OC(c1ccc(F)c(-c2ncnc3cc(N4CCOCC4)ccc23)c1)c1nccc2ccoc12 (stereo not shown) [Example 328] ? < 0.5 µM

====

target: DNA-PK phosphorylation at serine 2056 (Homo sapiens (Human)); experiment: DNA-PK phosphorylation at serine 2056 (cellular), bleomycin-treated HCT116 cells, ELISA; format: cell-based; settings: cellular DNA-PK phosphorylation at serine 2056, HCT116; read-out: IC50 pDNA-PK
readout: IC50

Cc1cncnc1C(C(N)=O)c1cc(-c2ncnc3cc(N4CCOCC4)ccc23)ccc1Cl (centres unmarked) [Example 407] : 0.5 to 5 µM

Given the compound OC(c1cc(-c2ncnc3cc(N4CCOCC4)ccc23)c(F)cc1Cl)c1nccn2ccnc12 (centres unmarked) [Example 397] , what is its reported IC50? < 0.5 µM

// lookup IC50 for Cn1c(C(O)c2ccc(F)c(-c3ncnc4cc(N5CCOCC5)ccc34)c2)cccc1=O (centres unmarked) [Example 376] < 0.5 µM

Find the recorded IC50 belonging to Cn1c(C(O)c2cc(-c3ncnc4cc(N5CCOCC5)ccc34)c(F)cc2Cl)cccc1=O (centres unmarked) [Example 382] and report it. 0.5 to 5 µM

Any idea what IC50 was measured for COc1nccnc1C(O)c1cc(-c2ncnc3cc(N4CCOCC4)ccc23)c(F)cc1Cl (centres unmarked) [Example 468] ? < 0.5 µM

# input compound: OC(c1ccc(F)c(-c2ncnc3cc(N4CCOCC4)ccc23)c1)c1nnc2ccccn12 (centres unmarked) [Example 343] ; wanted: its IC50 0.5 to 5 µM

// lookup IC50 for COc1ccc(C(O)c2ccc(F)c(-c3ncnc4cc(N5CCOCC5)cc(F)c34)c2)nn1 (centres unmarked) [Example 260] < 0.5 µM

Given Cc1nccnc1[C@H](O)c1ccc(F)c(-c2ncnc3cc(N4CCOCC4)cc(F)c23)c1 [Example 248] , state its recorded IC50. < 0.5 µM

====

molecular target: DNA-PK (Homo sapiens (Human)); test: DNA-PK assay (biochemical), flashplate 33P-ATP kinase assay; conditions: enzymatic; 5 μM ATP
pIC50: −log10 of the molar value.
readout: pIC50

Worked cases, pIC50 given:
OC(c1ccc(Cl)nn1)c1cc(-c2ncnc3cc(N4CCOCC4)ccc23)c(F)cc1F (stereo not shown) : > 8.52
COc1ccc([C@H](O)c2ccc(F)c(-c3ncnc4cc(N5CCOCC5)ccc34)c2)nn1 : > 8.52
OC(c1ccn2nccc2n1)c1cc(-c2ncnc3cc(N4CCOCC4)ccc23)c(F)cc1Cl (stereo not shown) : 8.15 to 8.52
COc1nccnc1C(O)c1ccc(F)c(-c2ncnc3cc(N4CCOCC4)ccc23)c1 (stereo not shown) [Example 38] : > 8.52
OC(c1ccc(F)c(-c2ncnc3cc(N4CCOCC4)ccc23)c1)c1cncc(F)c1Cl (stereo not shown) : 8.15 to 8.52

Which measured pIC50 value corresponds to COc1cnc(C(O)c2ccc(F)c(-c3ncnc4cc(N5CCOCC5)ccc34)c2)cn1 (stereo not shown) [Example 60] ? 7.52 to 8.15

Name the recorded pIC50 for Cc1cnc(C)c(C(O)c2cc(-c3ncnc4cc(N5CCOCC5)ccc34)c(F)cc2F)n1 (stereo not shown) . > 8.52

Find the recorded pIC50 belonging to OC(c1ccc(F)c(-c2ncnc3cc(N4CCOCC4)ccc23)c1)c1nc(Cl)cnc1Cl (stereo not shown) and report it. > 8.52

Given O=c1ccc(C(O)c2ccc(F)c(-c3ncnc4cc(N5CCOCC5)ccc34)c2)n[nH]1 (stereo not shown) , state its recorded pIC50. > 8.52

Fill blank: measured pIC50 of the molecule COc1ccc(C(O)c2cc(-c3ncnc4cc(N5CCOCC5)ccc34)c(F)cc2F)cc1 (stereo not shown) is ____. 7.52 to 8.15

What pIC50 value was documented for this molecule, OC(c1ccc(F)c(-c2ncnc3cc(N4CCOCC4)sc23)c1)c1nccnc1Cl (single isomer, unassigned) [Example 24] ? > 8.52

Query (molecule): COc1cnc(C(O)c2ccc(OC)c(-c3ncnc4cc(N5CCOCC5)ccc34)c2)cn1 (stereo not shown) ; field requested: pIC50 < 7.52

Return reported pIC50; argument: CN(C)c1ccc(C(O)c2ccc(F)c(-c3ncnc4cc(N5CCOCC5)ccc34)c2)nn1 (stereo not shown) 8.15 to 8.52

pIC50 for Cc1cc(F)c(-c2ncnc3cc(N4CCOCC4)ccc23)cc1C(O)c1nccs1 (stereo not shown) [Example 210] ? 8.15 to 8.52

Quick one: pIC50 of COC(=O)c1ccc(C(O)c2cc(-c3ncnc4cc(N5CCOCC5)ccc34)c(F)cc2Cl)nn1 (stereo not shown) ? 8.15 to 8.52

Consider the molecule CCn1nc(C(O)c2cc(-c3ncnc4cc(N5CCOCC5)ccc34)c(F)cc2Cl)ccc1=O (stereo not shown) [Example 97] and give its measured pIC50. > 8.52

====

biological target: DNA-PK phosphorylation at serine 2056 (Homo sapiens (Human), UniProt P78527); assay: DNA-PK phosphorylation at serine 2056 (cellular), bleomycin-treated HCT116 cells, ELISA; format: cell-based; conditions: cellular; HCT116 cells, 10 μM bleomycin, six hours; read-out: IC50 pDNA-PK
readout: IC50

COc1cnc(C(O)c2ccc(OC)c(-c3ncnc4cc(N5CCOCC5)ccc34)c2)cn1 (stereo not shown) [Example 61] : 10000 to 30000 nM
CSc1ccc(C(O)c2cc(-c3ncnc4cc(N5CCOCC5)ccc34)c(F)cc2Cl)nn1 (stereo not shown) [Example 108] : < 500 nM
OC(c1ccc(F)c(-c2ncnc3cc(N4CCOCC4)ccc23)c1)c1c(F)cncc1Cl (stereo not shown) [Example 77] : < 500 nM

Item: OC(c1ccc2nccn2n1)c1cc(-c2ncnc3cc(N4CCOCC4)ccc23)c(F)cc1Cl (stereo not shown) [Example 63] Test system: DNA-PK phosphorylation at serine 2056 (Homo sapiens (Human), UniProt P78527) Read-out: IC50 Value: ? 500 to 5000 nM

====

compounds and their reported pKi
biological target: UniProt:Q12809; test: Kv11.1 (hERG) ion channel activity (patch clamp assay), HEK293 cells transfected with hERG gene; settings: Ki [Kv1.11 hERG], patch clamp, HEK293 transfected with hERG gene
Sequence (Q12809 whole entry): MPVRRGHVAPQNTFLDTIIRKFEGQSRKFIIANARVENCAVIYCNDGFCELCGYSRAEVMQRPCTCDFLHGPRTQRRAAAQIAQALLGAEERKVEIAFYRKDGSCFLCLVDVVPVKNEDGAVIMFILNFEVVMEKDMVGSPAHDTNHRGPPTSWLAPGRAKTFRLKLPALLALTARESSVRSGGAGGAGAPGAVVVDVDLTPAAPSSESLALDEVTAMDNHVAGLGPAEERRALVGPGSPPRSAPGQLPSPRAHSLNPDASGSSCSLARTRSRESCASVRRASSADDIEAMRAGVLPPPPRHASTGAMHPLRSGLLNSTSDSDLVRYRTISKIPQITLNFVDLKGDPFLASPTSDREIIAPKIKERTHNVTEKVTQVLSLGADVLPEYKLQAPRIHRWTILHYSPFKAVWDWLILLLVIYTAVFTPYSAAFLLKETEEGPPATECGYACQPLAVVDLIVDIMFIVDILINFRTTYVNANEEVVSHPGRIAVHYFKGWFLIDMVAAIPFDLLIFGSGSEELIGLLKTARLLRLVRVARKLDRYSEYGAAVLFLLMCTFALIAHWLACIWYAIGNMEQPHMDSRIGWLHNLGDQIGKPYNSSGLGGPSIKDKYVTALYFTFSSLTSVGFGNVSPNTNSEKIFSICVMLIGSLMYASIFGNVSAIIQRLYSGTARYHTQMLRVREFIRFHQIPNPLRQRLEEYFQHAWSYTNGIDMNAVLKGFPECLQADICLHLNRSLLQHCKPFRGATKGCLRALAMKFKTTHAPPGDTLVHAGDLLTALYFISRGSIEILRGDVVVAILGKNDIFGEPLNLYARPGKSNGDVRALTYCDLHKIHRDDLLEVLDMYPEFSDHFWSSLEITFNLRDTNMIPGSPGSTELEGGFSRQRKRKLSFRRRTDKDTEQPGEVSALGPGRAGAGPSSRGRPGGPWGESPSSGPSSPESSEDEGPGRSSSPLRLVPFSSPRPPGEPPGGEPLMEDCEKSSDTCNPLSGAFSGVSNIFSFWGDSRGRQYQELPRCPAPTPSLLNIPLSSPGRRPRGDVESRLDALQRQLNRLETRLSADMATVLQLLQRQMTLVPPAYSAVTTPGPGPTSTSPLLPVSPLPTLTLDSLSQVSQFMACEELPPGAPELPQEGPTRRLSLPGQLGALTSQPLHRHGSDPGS
pKi: −log10 of the molar value.

Below: 2 compounds and their reported pKi.
OC(c1ccc(F)c(-c2ncnc3cc(N4CCOCC4)ccc23)c1)c1nccnc1Cl (stereo not shown) : 4.60 to 4.82
CCn1nc(C(O)c2cc(-c3ncnc4cc(N5CCOCC5)ccc34)c(F)cc2Cl)ccc1=O (stereo not shown) : 4.82 to 5.00

For the compound shown here, COc1cc(C(O)c2ccc(F)c(-c3ncnc4cc(N5CCOCC5)ccc34)c2)c(Cl)nn1 (stereo not shown) , give the reported pKi. 4.60 to 4.82

Dear colleague, I am looking for the recorded pKi of the following compound: N#CCOc1ccc(C(O)c2cc(-c3ncnc4cc(N5CCOCC5)ccc34)c(F)cc2Cl)nn1 (stereo not shown) 4.60 to 4.82

What value of measured pKi is listed for Cc1cnnc(C(O)c2cc(-c3ncnc4cc(N5CCOCC5)ccc34)c(F)cc2Cl)c1 (stereo not shown) ? 4.60 to 4.82

====

target: DNA-PK (Homo sapiens (Human)); experiment: DNA-PK assay (biochemical), flashplate 33P-ATP kinase assay; details: enzymatic; 5 μM ATP
readout: IC50

OC(c1ccc(F)c(-c2ncnc3cc(N4CCOCC4)ccc23)c1)c1cccnn1 (stereo not shown) : 7 to 30 nM
Cn1nc(C(O)c2cc(-c3ncnc4cc(N5CCOCC5)ccc34)c(F)cc2Cl)ccc1=O (single isomer, unassigned) [Example 44] : 7 to 30 nM
COc1ccc(C(O)c2ccc(F)c(-c3ncnc4cc(N5CCOCC5)ccc34)c2)nn1 (stereo not shown) : < 3 nM
NC(=O)Cn1nc(C(O)c2cc(-c3ncnc4cc(N5CCOCC5)ccc34)c(F)cc2Cl)ccc1=O (stereo not shown) : 3 to 7 nM
O=C(O)c1ccc(C(O)c2cc(-c3ncnc4cc(N5CCOCC5)ccc34)c(F)cc2Cl)nn1 (stereo not shown) : 3 to 7 nM

Query: IC50; subject: OC(c1ccc2nccn2n1)c1cc(-c2ncnc3cc(N4CCOCC4)ccc23)c(F)cc1F (single isomer, unassigned) [Example 21] < 3 nM

Item `O[C@@H](c1ccc(F)c(-c2ncnc3cc(N4CCOCC4)ccc23)c1)c1nccnc1Cl` has what recorded IC50? 7 to 30 nM

Requested read-out: IC50. Entry: OC(c1ccc(F)c(-c2ncnc3cc(N4CCOCC4)ccc23)c1)c1nccnc1OC1COC1 (stereo not shown) 7 to 30 nM

Returns the measured IC50 for the input compound. Input: OC(c1ccc(F)c(-c2ncnc3cc(N4CCOCC4)ccc23)c1)c1cnccn1 (stereo not shown) 7 to 30 nM

Which IC50 is listed for OC(c1cccnn1)c1cc(-c2ncnc3cc(N4CCOCC4)ccc23)c(F)cc1F (stereo not shown) ? 3 to 7 nM

Given the entry CNC(=O)c1ccc(C(O)c2cc(-c3ncnc4cc(N5CCOCC5)ccc34)c(F)cc2Cl)nn1 (stereo not shown) , report its measured IC50. 3 to 7 nM

Requested field: IC50. Item: COc1ccc(C(C)(O)c2cc(-c3ncnc4cc(N5CCOCC5)ccc34)c(F)cc2Cl)nn1 (stereo not shown) 3 to 7 nM

Endpoint output: IC50 of N#CCOc1ccc(C(O)c2cc(-c3ncnc4cc(N5CCOCC5)ccc34)c(F)cc2Cl)nn1 (stereo not shown) . Value? < 3 nM

// IC50 lookup, key: OC(c1ccc(F)c(-c2ncnc3cc(N4CCOCC4)ccc23)c1)c1ccc(OC(F)F)nn1 (stereo not shown) 3 to 7 nM

Dear colleague, I am looking for the recorded IC50 of the following compound: COc1cnc(C(O)c2ccc(F)c(-c3ncnc4cc(N5CCOCC5)ccc34)c2)nc1 (stereo not shown) [Example 69] 3 to 7 nM

Entry OCCNc1nccnc1C(O)c1ccc(F)c(-c2ncnc3cc(N4CCOCC4)ccc23)c1 (stereo not shown) : reported IC50 = ? 7 to 30 nM

Where do these numbers come from? They come from patent US9732094B2.
